The reported numbers originate from patent EP4785956A2.

The following binders are listed with their measured koff values.
tested_target: T1, recombinant human C5 (human, UniProt P01031 20-1676)
T1 construct: The same entry is used here for C5 in normal human serum in the functional rows; also called hC5; rhC5
measurement_notes: SPR (BIACORE T200), antibody captured by ProA/G, recombinant human C5 injected, 37 degrees C, pH5.8; pH 5.8
assay_readout: koff

[
  {
    "binder": "CFA0307 (antibody, V domains shown) VH: QSLEESGGGLVKPGASLTLTCKASGIDFSNFYYICWVRQAPGKGLDLIACIYTVSGYTYYASWAKGRLTISKTSSTTVTLQMTSLTAADTATYFCARDLHAGITNLWGPGTLVTVSS VL: AIEMTQTPFSVSAAVGGTVTIKCQASQNIYSNLAWYQQKPGQRPKLLIYGASNLESGVPSRFKGSGSGTEYTLTISDLECADAATYYCLQGYSYSNVDDAFGGGTEVVVK",
    "value_reported": "0.0334 s⁻¹"
  },
  {
    "binder": "CFA0366 (antibody, V domains shown) VH: QSLEESGGDLVKPGASLSLTCTAAGLDFSSSYYMCWVRQAPGKGLEWIACIYAGSSGIIYYANWAKGRFTISRPSSTTVTLQMTSLTAADTATYFCATYPTYGDGGHAFNLWGPGTLVTVSS VL: AQVLTQTPSSVSAAVGGTVTINCQSSQSVYSSDYLSWYQQKPGQPPKLLIYEASKLASGVPPRFSGSGSGTQFTLTISGVQCDDAATYYCQGTYYSSGWYFAFGGGTEVVVK",
    "value_reported": "0.0703 s⁻¹"
  },
  {
    "binder": "CFA0501 (antibody, V domains shown) VH: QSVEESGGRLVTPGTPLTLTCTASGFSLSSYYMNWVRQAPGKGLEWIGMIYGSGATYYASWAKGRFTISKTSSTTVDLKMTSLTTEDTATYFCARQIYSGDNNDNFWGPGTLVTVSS VL: AYDMTQTPASVEVAVGGTVTINCQASESISNWLAWYQQKPGQRPKLLIYRASTLASGVSSRFKGSGSGTQFTLTISGVECDDAATYYCQQDYSSSNVDNTFGGGTKVVVE",
    "value_reported": "0.0262 s⁻¹"
  },
  {
    "binder": "CFA0599 (antibody, V domains shown) VH: QSVEESGGRLVTPGTPLTLTCTVSGLSLSDNTMTWVRQAPGKGLEWIGIISFGGDAYYASWAKGRFPISKTSTTVDLRITSPTTEDTATYFCARVGAGNIFWYFDLWGPGTLVTVSS VL: AYDMTQTPASVEVSVGGTVTIKCQASESIYSALAWYQQKPGQPPKLLIYSASTLASGVPSRFKGSGSGTEYTLTISDLECADAATYYCQQYYSSTNVHNSFGGGTTVVVE",
    "value_reported": "0.0373 s⁻¹"
  },
  {
    "binder": "CFA0341 (antibody, V domains shown) VH: QSVEESGGRLVTPGTPLTLTCTVSGIDLSSYTMGWVRQAPGKGLECIGYIHSFGSTYYASWAKGRFTISKTSTTVDLEITSPTTEDTATYFCARDVGGSSGWDLWGQGTLVTVSS VL: DVVMTQTPSSVSAAVGGTVTIKCQASENIYSNLAWYQQKPGQPPKRLIYDASDLASGVPSRFSGSGYGTQFTLTISGVQCEDAATYYCQANYDSTSSSFGNVFGGGTEVVVK",
    "value_reported": "7.39e-05 s⁻¹"
  },
  {
    "binder": "CFA0538 (antibody, V domains shown) VH: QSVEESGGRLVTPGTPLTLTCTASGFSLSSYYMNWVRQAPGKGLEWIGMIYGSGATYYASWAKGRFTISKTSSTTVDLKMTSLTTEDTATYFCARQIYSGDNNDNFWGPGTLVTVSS VL: AYDMTQTPASVEVAVGGTVTINCQASESISNWLAWYQQKPGQRPKLLIYRASTLASGVSSRFKGSGSGTQFTLTISGVECDDAATYYCQQDYSSSNVDNTFGGGTTVVVE",
    "value_reported": "0.0301 s⁻¹"
  },
  {
    "binder": "CFA0666 (antibody, V domains shown) VH: QSVEESGGRLVTPGTPLTLTCTVSGFSLSTYAMGWVRQAPGKGLEWIGTIDTGDNSFYANWAKGRFTISKTSTTVDLKITSPTAEDTATYFCARNDGSVYNLFNLWGPGTLVTVSS VL: DVVMTQTPASVSAAVGGTVTIKCQASENIYSALSWYQQKPGLRPRLLIYYASTLASGVPSRFKGSRSGTEFTLTISDLECADAATYYCQQYYDINSVDNTFGGGTKVVVE",
    "value_reported": "0.00939 s⁻¹"
  },
  {
    "binder": "CFA0305 (antibody, V domains shown) VH: QSLEESGGDLVKPGASLAVTCTASGFSSSSSYYMCWVRQAPGKGLEWIGCIYTGSGATYYASWAKGRFTISKTSSTTVTLQMTSLTVADTATYFCASDGGYVTPTHAMYLWGPGTLVTVSS VL: DVVMTQTPASVSAAVGGTVTIKCQASQNIGSDLAWYQQKPGQPPRLLIYGASKLASGVSSRFSGSGSGKEFTLTISDLECADAVTYYCQCTFVGSSYGNAFGGGTEVVVK",
    "value_reported": "0.0183 s⁻¹"
  }
]
